experiment: Disruption of PP1 holoenzyme (unknown origin) interaction with protein inhibitor 2 assessed as increase in PP1 phosphatase activity by measuring increase in fluorescence using DiFMUP as substrate enzyme preincubated with I2 for ten mins followed by compound treatment for 20 mins followed by substrate addition by fluorescence based analysis; set-up: species or system Homo sapiens
Where a SMILES comes first, the peptide text is derived from it. [ ]: non-standard residue; d: D form. Gly(cPr) = N[C@H](C(=O)O)C1CC1
Each record here notes measured EC50.

A selection of reference data follows.
CC(C)[C@H](NC(=O)[C@@H](N)CCCCN)C(=O)N[C@H](C(=O)N[C@@H](Cc1ccccc1)C(=O)O)[C@@H](C)O (H-KVTF-OH): > 500 µM
CC(C)[C@H](NC(=O)[C@@H](N)CCCNC(=N)N)C(=O)N[C@@H](Cc1cnc[nH]1)C(=O)N[C@@H](Cc1ccccc1)C(=O)O (H-RVHF-OH): 69.7 µM
CC(C)[C@H](NC(=O)[C@@H](N)CCCNC(=N)N)C(=O)N[C@@H](CO)C(=O)N[C@@H](Cc1ccccc1)C(=O)O (H-RVSF-OH): > 500 µM
CC(=O)N[C@@H](CCCNC(=N)N)C(=O)N[C@H](C(=O)N[C@H](C(=O)N[C@@H](Cc1ccccc1)C(=O)O)[C@@H](C)O)C(C)C (Ac-RVTF-OH): > 500 µM
N=C(N)NCCC[C@H](NC(=O)[C@@H](N)CCCCN)C(=O)N[C@H](C(=O)N[C@@H](Cc1c[nH]cn1)C(=O)N[C@@H](Cc1ccccc1)C(N)=O)C1CC1 (H-KR[Gly(cPr)]HF-NH2): 2.1 µM

Moving on to another compound below.
Query: What measured EC50 goes with CC(C)[C@@H](NC(=O)[C@@H](N)CCCNC(=N)N)C(=O)N[C@H](C(=O)N[C@@H](Cc1ccccc1)C(=O)O)[C@@H](C)O (H-R[dV]TF-OH) ?
Response: > 500 µM

---

assay: Binding affinity to PP1 (unknown origin) assessed as binding to RVxF binding site of PP1 by competing with PDP incubated for 60 mins in presence of biotin-PDP2 by ALPHA assay; set-up: species or system Homo sapiens
measure: IC50 (µM)
The response must be a number in µM with no trailing unit.

Query: What measured IC50 goes with CC(C)[C@H](NC(=O)[C@H](CCCNC(=N)N)NC(=O)[C@@H](N)CCCCN)C(=O)N[C@@H](Cc1cnc[nH]1)C(=O)N[C@@H](Cc1ccccc1)C(N)=O ?
Response: 124

---

experiment: Disruption of PP1 holoenzyme (unknown origin) interaction with protein inhibitor 2 assessed as increase in PP1 phosphatase activity by measuring increase in fluorescence using DiFMUP as substrate enzyme preincubated with I2 for ten mins followed by compound treatment for 20 mins followed by substrate addition by fluorescence based analysis; set-up: species or system Homo sapiens
Where a SMILES comes first, the peptide text is derived from it. [ ]: non-standard residue; d: D form. 1Nal = N[C@@H](Cc1cccc2ccccc12)C(=O)O
Each record here notes measured EC50.
The response must be a number in µM with no trailing unit.

CC(C)[C@H](NC(=O)[C@@H](N)CCCNC(=N)N)C(=O)N[C@@H](CCCCN)C(=O)N[C@@H](Cc1ccccc1)C(=O)O (H-RVKF-OH): 249
CC(=O)N[C@@H](CCCNC(=N)N)C(=O)N[C@H](C(=O)N[C@H](C(=O)N[C@@H](Cc1ccccc1)C(N)=O)[C@@H](C)O)C(C)C (Ac-RVTF-NH2): 85.7
CC(C)[C@H](NC(=O)[C@@H](N)CCCNC(=N)N)C(=O)N[C@H](C(=O)N[C@@H](Cc1ccccc1)C(=O)O)[C@@H](C)O (H-RVTF-OH): 234
CC(C)[C@H](NC(=O)[C@H](CCCNC(=N)N)NC(=O)[C@H](N)CCCCN)C(=O)N[C@@H](Cc1cnc[nH]1)C(=O)N[C@@H](Cc1ccccc1)C(N)=O: 2.6

Query: What measured EC50 goes with CC(C)[C@H](NC(=O)[C@@H](N)CCCNC(=N)N)C(=O)N[C@@H](CC(N)=O)C(=O)N[C@@H](Cc1ccccc1)C(=O)O (H-RVNF-OH) ?
Response: 220

Query: What measured EC50 goes with CC(C)[C@H](NC(=O)[C@H](CCCNC(=N)N)NC(=O)[C@@H](N)CCCCN)C(=O)N[C@@H](Cc1cnc[nH]1)C(=O)N[C@@H](Cc1cccc2ccccc12)C(N)=O (H-KRVH[1Nal]-NH2) ?
Response: 2.5

Query: What measured EC50 goes with CC(C)[C@H](NC(=O)[C@@H](N)CCCNC(=N)N)C(=O)N[C@@H](CCC(N)=O)C(=O)N[C@@H](Cc1ccccc1)C(=O)O (H-RVQF-OH) ?
Response: 224

---

test: Disruption of PP1 holoenzyme (unknown origin) interaction with protein inhibitor 2 assessed as increase in PP1 phosphatase activity by measuring increase in fluorescence using DiFMUP as substrate enzyme preincubated with I2 for ten mins followed by compound treatment for 20 mins followed by substrate addition by fluorescence based analysis; set-up: species or system Homo sapiens
Where a SMILES comes first, the peptide text is derived from it. [ ]: non-standard residue; d: D form. 2Nal = N[C@@H](Cc1ccc2ccccc2c1)C(=O)O; NMeR = CN[C@@H](CCCNC(=N)N)C(=O)O; hArg = N=C(N)NCCCC[C@H](N)C(=O)O
measure: pEC50
Just the number, please; pEC50 means minus log10 of the concentration in mol/L.

CC(C)[C@H](NC(=O)[C@@H](N)CCCNC(=N)N)C(=O)N[C@H](C(=O)N[C@@H](Cc1ccccc1)C(N)=O)[C@@H](C)O (H-RVTF-NH2): 4.00
CC(C)[C@H](NC(=O)[C@@H](N)CCCNC(=N)N)C(=O)N[C@@H](Cc1c[nH]c2ccccc12)C(=O)N[C@@H](Cc1ccccc1)C(=O)O (H-RVWF-OH): 3.98
CC(C)[C@H](NC(=O)[C@H](CCCNC(=N)N)NC(=O)[C@@H](N)CCCCN)C(=O)N[C@@H](Cc1c[nH]cn1)C(=O)N[C@@H](Cc1ccc2ccccc2c1)C(N)=O (H-KRVH[2Nal]-NH2): 5.82

Query: What measured pEC50 goes with CC(C)[C@H](NC(=O)[C@H](CCCNC(=N)N)N(C)C(=O)[C@@H](N)CCCCN)C(=O)N[C@@H](Cc1cnc[nH]1)C(=O)N[C@@H](Cc1ccccc1)C(N)=O (H-K[NMeR]VHF-NH2) ?
Response: 5.33

Query: What measured pEC50 goes with CC(C)[C@H](NC(=O)[C@H](CCCNC(=N)N)NC(=O)[C@@H](N)CCCCNC(=N)N)C(=O)N[C@@H](Cc1cnc[nH]1)C(=O)N[C@@H](Cc1ccccc1)C(N)=O (H-[hArg]RVHF-NH2) ?
Response: 5.18

Query: What measured pEC50 goes with CC(C)[C@H](NC(=O)[C@H](CCCNC(=N)N)NC(=O)[C@@H](N)CCCCN)C(=O)N[C@@H](Cc1cnc[nH]1)C(=O)N[C@@H](Cc1ccccc1)C(N)=O ?
Response: 6.22

---

experiment: Disruption of PP1 holoenzyme (unknown origin) interaction with protein inhibitor 2 assessed as increase in PP1 phosphatase activity by measuring increase in fluorescence using DiFMUP as substrate enzyme preincubated with I2 for ten mins followed by compound treatment for 20 mins followed by substrate addition by fluorescence based analysis; parameters: species or system Homo sapiens
Where a SMILES comes first, the peptide text is derived from it. [ ]: non-standard residue; d: D form. NMeF = CN[C@@H](Cc1ccccc1)C(=O)O; β3hR = N=C(N)NCCC[C@H](N)CC(=O)O; Cha = N[C@@H](CC1CCCCC1)C(=O)O; Orn = NCCC[C@H](N)C(=O)O
measure: pEC50
Just the number, please; pEC50 means minus log10 of the concentration in mol/L.

A selection of reference data follows.
CC(C)[C@H](NC(=O)[C@@H](N)CCCNC(=N)N)C(=O)N[C@H](C(=O)N[C@@H](Cc1c[nH]c2ccccc12)C(=O)O)[C@@H](C)O (H-RVTW-OH): 3.59
CC(C)[C@H](NC(=O)[C@H](CCCNC(=N)N)NC(=O)[C@@H](N)CCCCN)C(=O)N[C@@H](Cc1cnc[nH]1)C(=O)N[C@@H](CC1CCCCC1)C(N)=O (H-KRVH[Cha]-NH2): 4.28
CC(C)[C@H](NC(=O)C[C@H](CCCNC(=N)N)NC(=O)[C@@H](N)CCCCN)C(=O)N[C@@H](Cc1c[nH]cn1)C(=O)N[C@@H](Cc1ccccc1)C(N)=O (H-K[β3hR]VHF-NH2): 3.69
CC(C)[C@H](NC(=O)[C@H](CCCNC(=N)N)NC(=O)[C@@H](N)CCCCN)C(=O)N[C@@H](Cc1c[nH]cn1)C(=O)N(C)[C@@H](Cc1ccccc1)C(N)=O (H-KRVH[NMeF]-NH2): 4.63

Moving on to another compound below.
Query: What measured pEC50 goes with CC(C)[C@H](NC(=O)[C@H](CCCNC(=N)N)NC(=O)[C@@H](N)CCCN)C(=O)N[C@@H](Cc1c[nH]cn1)C(=O)N[C@@H](Cc1ccccc1)C(N)=O (H-[Orn]RVHF-NH2) ?
Response: 5.39
